Data origin, for the record: patent US11286268B1

The entries below are paired with their reported pIC50.
# ASSAYED_TARGET: recombinant eIF4E (Homo sapiens (Human))
# RUN_DESCRIPTION: Fluorescence polarization competition assay for eIF4E binding potency
# COND: fluorescence polarization competition, 75 nM recombinant eIF4E, 20 nM EDA-m7GDP-ATTO-550; IC50 class; read-out: elF4E FP
pIC50: −log10 of the molar value.

Cc1cc(-c2cc(Cl)ccc2C#CCn2c(C)nc3cc(C(F)(F)F)c(N4CCN(C)CC4)c(C#N)c3c2=O)c2scc(C(=O)O)c2n1; > 7.30
Cc1nc2cnc(/C=C/CN3CCC(F)(F)CC3)c(C#N)c2c(=O)n1CCOc1ccc(Cl)cc1-c1ccnc2c(C(=O)O)csc12; > 7.30

Next item in the queue.
# input Tell me pIC50 reported for Cc1cc(-c2cc(Cl)ccc2OCCn2c(C)nc3cnc(N4CC(OCC(F)(F)F)C4)c(C#N)c3c2=O)c2scc(C(=O)O)c2n1
# output > 7.30

====

# ASSAYED_TARGET: recombinant eIF4E (Homo sapiens (Human), UniProt P06730)
# Sequence (P06730 whole entry): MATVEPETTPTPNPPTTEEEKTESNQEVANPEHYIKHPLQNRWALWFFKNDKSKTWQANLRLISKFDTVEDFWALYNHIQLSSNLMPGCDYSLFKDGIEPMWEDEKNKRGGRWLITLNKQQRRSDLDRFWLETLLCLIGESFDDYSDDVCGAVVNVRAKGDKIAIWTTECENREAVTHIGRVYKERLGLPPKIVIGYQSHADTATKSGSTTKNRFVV
# RUN_DESCRIPTION: Fluorescence polarization competition assay for eIF4E binding potency
# COND: inhibition of eIF4E/EDA-m7GDP-ATTO-550 binding by 50%; Table 4B calculated values; read-out: IC50
The entries below are paired with their reported IC50.
Number in µM, nothing else.

Cc1nc2cnc(N3CCN(CCC(F)(F)F)CC3)c(C#N)c2c(=O)n1CC#Cc1ccc(Cl)cc1-c1ccnc2c(C(=O)O)csc12; 0.0172
CCc1sc2c(-c3cc(Cl)ccc3OCCn3c(C)nc4cc(C(F)(F)F)cc(C#N)c4c3=O)ccnc2c1C(=O)O; 0.0449
N#Cc1c(F)cc(CCOc2ccc(Cl)cc2-c2cccc(C(=O)O)c2)c2c(=O)[nH]c(Nc3ccccc3)nc12; 0.0521
Cc1cc(-c2cc(Cl)ccc2OCCn2c(C)nc3c(C(F)(F)F)ncc(C#N)c3c2=O)c2scc(C(=O)O)c2n1; 0.00501
Cc1nc2cnc(N(C)C3CCN(C4CC(F)(F)C4)CC3)c(C#N)c2c(=O)n1CC#Cc1ccc(Cl)cc1-c1ccnc2c(C(=O)NS(=O)(=O)c3cccnc3)csc12; 0.0072

Next item in the queue.
# input Tell me IC50 reported for Cc1nc2c(OC(F)F)ccc(C#N)c2c(=O)n1CCOc1ccc(Cl)cc1-c1ccnc2c(C(=O)O)csc12
# output 0.0489

====

The entries below are paired with their reported pIC50.
# ASSAYED_TARGET: recombinant eIF4E (Homo sapiens (Human))
# RUN_DESCRIPTION: Fluorescence polarization competition assay for eIF4E binding potency
# COND: inhibition of eIF4E/EDA-m7GDP-ATTO-550 binding; calculated IC50 values, Table 4B; read-out: IC50
When answering, recall that pIC50 equals minus log10 of the concentration in mol/L, and write that number alone.

Cc1cc(-c2cc(Cl)ccc2C#CCn2c(C)nc3cc(C(F)(F)F)c(N4CCN(C)CC4)c(C#N)c3c2=O)c2scc(C(=O)O)c2n1 [compound 1213]; 7.37
Cc1nc2cnc(N(C)C3CCN(C4CC(F)(F)C4)CC3)c(C#N)c2c(=O)n1CC#Cc1ccc(Cl)cc1-c1ccnc2c(C(=O)NS(=O)(=O)C(F)(F)F)csc12 [compound 1818]; 7.89

Next item in the queue.
# input Tell me pIC50 reported for Cc1nc2cnc(N(C)C3CCN(C4CC(F)(F)C4)CC3)c(C#N)c2c(=O)n1CC#Cc1ccc(Cl)cc1-c1ccnc2c(C(=O)NS(C)(=O)=O)csc12 [compound 1589]
# output 7.91
